target: T1, cyno IL-12RB1 overexpressed on 293T cells (Example 2) (cyno, UniProt A0A2K5VWV1 24-662); assay: FACS, hybridoma supernatant, 293T
T1 construct: whole, on cells
observable: Fold over parental 293T (fold)
Give bare numbers, in fold.

85801_04D14 (antibody, V domains shown, also called 85801_04D14A) VH: QVHLVQSGAEVKKPGASVKVSCKASGYTFIDYYMHWVRQAPGQGLEWMGWINPNSGGTHYSQKFQGRVTMTWDTSISTAYMELSRLTSDDTAVYYCAREGDYISSSAFDYWGQGTLVTVSS VL: DIQLTQSPSFLSASVGDRVTITCRASQGISSYLAWYQQKPGKAPKVLIYAASTLQSGVPSRFSGSGSGTEFTLTISSLLPEDFATYFCQQLHRYPYTFGQGAKLEIK; 44

Turning now to a further binder:
Q) Find the recorded Fold over parental 293T belonging to 85801_04D10 (antibody, V domains shown, also called 85801_04D10A) VH: EVQLLESGGGLVQPGGSLRLSCAASGFTFSSYAMSWVRQAPGKGLEWVAGISGSGGGIYYADSVKGRFTISRDNSKNTLYLQLNSLRADDTAVYYCARRLIGYWYFDLWGRGTLVPVSS VL: DIQMTQSPSSLSASVGDRVTITCRASQGISNYLAWFQQKPGKAPKSLIYAASSLQSGVPSKFSGSGSGTDFTLTISSLQPEDFATYYCQQYNSYPPTFGGGTKVEIK and report it.
A) 20
